- Tested on: platelets
- test-description: Platelets aggregation inhibitory activity (method of Born et al.), ADP-induced, human PRP (Pharmacological Test I)
- Type: cell-based, man
- condition-set: Homo sapiens, Platelet, 7.5 μM ADP, 37° C., read-out: IC50 ADP (50% platelets aggregation inhibition)
pIC50: −log10 of the molar value.
Each record here notes measured pIC50.
measure: pIC50

                                    compound   val
 0  O=c1ccc2cc(OCCCCCN(CCN3CCCS3(=O)=O)Cc3ccccc3)ccc2[nH]1 [Example 56]  4.85
 1  Cc1ccc(CN(CCCCCOc2ccc3[nH]c(=O)ccc3c2)CCN2CCC(O)CC2)cc1 [Example 32]  5.32
 2  CC(=O)NCCN(CC1CCCCCCC1)S(=O)(=O)CCCCOc1ccc2[nH]c(=O)ccc2c1 [Example 112]  6.08
 3  O=C(NCC1CCCCC1)[C@@H]1C[C@@H](O)CN1CCCCOc1ccc2[nH]c(=O)ccc2c1 [Example 75]  5.04
 4  CCN(CC)CC(CO)N(CC1CCCCCCC1)S(=O)(=O)CCCCOc1ccc2[nH]c(=O)ccc2c1 (centres unmarked) [Example 107]  5.47
 5  COc1ccc(CN(CCN2CCC(O)CC2)S(=O)(=O)CCCCOc2ccc3[nH]c(=O)ccc3c2)cc1OC [Example 96]  5.06
 6  O=c1ccc2cc(OCCCS(=O)(=O)N(CC(O)CO)CC3CCCCC3)ccc2[nH]1 (centres unmarked) [Example 109]  5.31
 7  O=c1ccc2cc(OCCCCCN(CCN3CCN(CCO)CC3)Cc3ccccc3)ccc2[nH]1 [Example 57]  4.74
 8  O=c1ccc2cc(OCCCCN(CCN3CCOCC3)CC3CCCCCCC3)ccc2[nH]1 [Example 45]  4.66
 9  O=c1ccc2cc(OCCCCN(CCN3CCC4(CC3)OCCO4)CC3CCCCCCC3)ccc2[nH]1 [Example 47]  4.60
10  O=c1ccc2cc(OCCCCN(CCNCCO)CC3CCCCCCC3)ccc2[nH]1 [Example 60]  4.82
11  O=c1ccc2cc(OCCCS(=O)(=O)N(CCN3CCC(O)CC3)CC3CCCCCCC3)ccc2[nH]1 [Example 78]  5.85
12  O=c1ccc2cc(OCCCS(=O)(=O)N(CCN3CCC(O)CC3)CC3CCCCC3)ccc2[nH]1 [Example 82]  5.35
13  CN(C)C1CCN(CCN(CC2CCCCCCC2)S(=O)(=O)CCCOc2ccc3[nH]c(=O)ccc3c2)CC1 [Example 100]  4.89
14  O=c1ccc2cc(OCCCCN(CCN3CCC(O)CC3)CC3CCCCC3)ccc2[nH]1 [Example 23]  5.10
15  O=c1ccc2cc(OCCCS(=O)(=O)N(CCN3CCN(CCO)CC3)CC3CCCCCCC3)ccc2[nH]1 [Example 99]  5.54
16  O=c1ccc2cc(OCCCCCN(CCN(CCO)CCO)Cc3ccccc3)ccc2[nH]1 [Example 58]  5.42
17  O=c1ccc2cc(OCCCCS(=O)(=O)N(CCN3CCC(O)CC3)Cc3ccccc3Cl)ccc2[nH]1 [Example 93]  5.92
18  O=c1ccc2cc(OCCCCN(CCN3CCC(O)CC3)S(=O)(=O)CC3CCCCC3)ccc2[nH]1 [Example 130]  4.85
19  O=c1ccc2cc(OCCCS(=O)(=O)N(CCN3CCCCC3)CC3CCCCCCC3)ccc2[nH]1 [Example 97]  4.85
20  O=C(c1ccccc1)N(CCCCOc1ccc2[nH]c(=O)ccc2c1)CCN1CCC(O)CC1 [Example 42]  4.70
21  O=c1ccc2cc(OCCCCCN(Cc3ccccc3)Cc3ccccn3)ccc2[nH]1 [Example 70]  4.40
22  O=c1ccc2cc(OCCCCN(CCN3CCC(O)CC3)CC3CCCCCCC3)ccc2[nH]1 [Example 15]  5.00
23  O=C(CN(CCCCOc1ccc2[nH]c(=O)ccc2c1)CC1CCCCCCC1)N1CCC(O)CC1 [Example 19]  5.21
24  O=c1ccc2cc(OCCCS(=O)(=O)N(CCN3CCC(O)CC3)Cc3ccccc3)ccc2[nH]1 [Example 83]  4.96
25  Cc1ccc(CN(CCN2CCC(O)CC2)S(=O)(=O)CCCCOc2ccc3[nH]c(=O)ccc3c2)cc1 [Example 94]  5.85
26  CCN(CC)CCN(CC1CCCCCC1)S(=O)(=O)CCCOc1ccc2[nH]c(=O)ccc2c1 [Example 110]  5.33
27  O=C([C@@H]1C[C@@H](O)CN1CCCCOc1ccc2[nH]c(=O)ccc2c1)N1CCCCC1 [Example 74]  4.77
28  COC(=O)[C@@H]1C[C@@H](O)CN1CCCCOc1ccc2[nH]c(=O)ccc2c1 [Example 73]  4.60
29  O=c1ccc2cc(OCCCCN(Cc3ccccc3)S(=O)(=O)CCCN3CCC[C@H]3CO)ccc2[nH]1 [Example 126]  5.00
30  O=c1ccc2cc(OCCCS(=O)(=O)N(CCN3CCOCC3)CC3CCCCCCC3)ccc2[nH]1 [Example 98]  5.04
31  O=c1ccc2cc(OCCCCN(CCN3CCC(O)CC3)C3CCCCC3)ccc2[nH]1 [Example 26]  4.82
